# Tested on: COLO 205 colon
# experimental-details: NCI tumour cell line growth inhibition, 48 h
Below, each entry is listed with its recorded TGI.

[
  {
    "compound": "CC12CCC(C(Nc3cc(C(F)(F)F)cc(C(F)(F)F)c3)C1=O)C2(C)C (configuration not stated)",
    "TGI": "> 100 µM"
  },
  {
    "compound": "Clc1ccc(OCc2nnc(CCCCCCCCc3nnc(COc4ccc(Cl)cc4Cl)n3Nc3ccccc3)n2Nc2ccccc2)c(Cl)c1",
    "TGI": "3.38 µM"
  },
  {
    "compound": "Cc1cc(C)c(S(=O)(=O)N2CCCN(S(=O)(=O)c3c(C)cc(C)cc3C)OCCCO2)c(C)c1",
    "TGI": "> 100 µM"
  },
  {
    "compound": "Oc1cc2c3c(c1)CCCN3CCC2",
    "TGI": "> 10 µM"
  },
  {
    "compound": "C=C1C(C2(C)C(OC(C)=O)CC(=O)OC(C)(COC(C)=O)C2CC(=O)OC)C(OC=O)C(OC(=O)C(O)C(C)CC)C2(C)C(c3ccoc3)CC(=O)C12O (configuration not stated)",
    "TGI": "> 100 µM"
  },
  {
    "compound": "Cc1cc(C)nc(NS(=O)(=O)c2ccc(NNc3c4ccccc4nc4c(C(=O)Nc5ccc(S(N)(=O)=O)cc5)cccc34)cc2)n1",
    "TGI": "> 100 µM"
  },
  {
    "compound": "COc1cc(S(=O)(=O)Nc2nc(-c3ccc(N4C(=O)/C(=C/C=C/c5ccccc5)N=C4c4ccccc4)cc3)cs2)ccc1Cl",
    "TGI": "> 100 µM"
  }
]

* * *

Below, each entry is listed with its recorded TGI.
# System: HCT-15 colon
# experimental-details: NCI tumour cell line growth inhibition, 48 h

[
  {
    "chemical-structure": "Cc1ccccc1NC(=O)c1c(C)oc2c1C(=O)c1ccccc1C2=O",
    "measured-on": "HCT-15 colon",
    "TGI": "> 74.8 µM"
  },
  {
    "chemical-structure": "O=C(c1ccccc1)c1c(-c2ccccc2)sc2nc3ccccc3nc12",
    "measured-on": "HCT-15 colon",
    "TGI": "> 100 µM"
  },
  {
    "chemical-structure": "O=C1c2ccccc2C(=O)N1CC1S(=O)(=O)OCCOS1(=O)=O",
    "measured-on": "HCT-15 colon",
    "TGI": "> 100 µM"
  },
  {
    "chemical-structure": "COc1cc2cc3c4cc(OC)c(OC)cc4cc[n+]3cc2cc1OC",
    "measured-on": "HCT-15 colon",
    "TGI": "> 100 µM"
  },
  {
    "chemical-structure": "CCOP(=O)(OCC)/C(=C/NC(=S)c1ccncc1)C(=O)OC",
    "measured-on": "HCT-15 colon",
    "TGI": "> 100 µM"
  },
  {
    "chemical-structure": "Oc1c(Cl)c(Cl)c(O)c(CCNc2ccc3ncccc3c2)c1Cl",
    "measured-on": "HCT-15 colon",
    "TGI": "30 µM"
  },
  {
    "chemical-structure": "COC(=O)c1cc2c3ccccc3n3c(=O)c4cc5ccccc5nc4c(n1)c23",
    "measured-on": "HCT-15 colon",
    "TGI": "> 100 µM"
  },
  {
    "chemical-structure": "CC(=O)NC1=C(NC(C)(C)C)C(=O)c2ccccc2C1=O",
    "measured-on": "HCT-15 colon",
    "TGI": "34.5 µM"
  },
  {
    "chemical-structure": "COc1ccc2cc3[nH]c(=O)cc(O)c3cc2c1OC",
    "measured-on": "HCT-15 colon",
    "TGI": "> 100 µM"
  },
  {
    "chemical-structure": "COc1cc(S(=O)(=O)Nc2nc(-c3ccc(N4C(=O)/C(=C/C=C/c5ccccc5)N=C4c4ccccc4)cc3)cs2)ccc1Cl",
    "measured-on": "HCT-15 colon",
    "TGI": "> 100 µM"
  }
]

* * *

# System: SK-OV-3 ovarian
# experimental-details: NCI tumour cell line growth inhibition, 48 h; in the data active = GI50 below about 0.43 µM; inactive = the rest
Labels: YES for active, NO for inactive

[
  {
    "compound": "COc1ccc(NC([Se])=NC23CC4CC(CC(C4)C2)C3)cc1",
    "measured-on": "SK-OV-3 ovarian",
    "label": "NO"
  },
  {
    "compound": "Cc1cc(-c2nc3sccn3c2/C=N/N=C(N)N)c(C)s1",
    "measured-on": "SK-OV-3 ovarian",
    "label": "NO"
  },
  {
    "compound": "COc1cc2c(cc1OC)-c1ccc3cc4c(cc3c1N(CCCn1ccnc1)C2)OCO4",
    "measured-on": "SK-OV-3 ovarian",
    "label": "NO"
  },
  {
    "compound": "Cc1nc2sc(C(=O)Nc3cccc4ccccc34)c(N)c2cc1C(O)c1ccccc1 (configuration not stated)",
    "measured-on": "SK-OV-3 ovarian",
    "label": "YES"
  },
  {
    "compound": "C=C(NC(=O)C(=C)NC(=O)c1csc(C2=NC3c4csc(n4)C4NC(=O)c5csc(n5)C(C(C)(O)C(C)O)NC(=O)C5CSC(=N5)C(=CC)NC(=O)C(C(C)O)NC(=O)c5csc(n5)C3(CC2)NC(=O)C(C)NC(=O)C(=C)NC(=O)C(C)NC(=O)C(C(C)CC)NC2C=Cc3c(C(C)O)cc(nc3C2O)C(=O)OC4C)n1)C(N)=O (configuration not stated)",
    "measured-on": "SK-OV-3 ovarian",
    "label": "NO"
  },
  {
    "compound": "CCC(=O)Nc1ccccc1C#C/C=C\\C#Cc1ccccc1SC",
    "measured-on": "SK-OV-3 ovarian",
    "label": "NO"
  },
  {
    "compound": "COc1cccc(/C=C/[N+](=O)[O-])c1",
    "measured-on": "SK-OV-3 ovarian",
    "label": "NO"
  }
]

* * *

# System: ACHN renal
# experimental-details: NCI tumour cell line growth inhibition, 48 h

[
  {
    "compound": "Cc1ccc2c(-c3ccnc(Nc4ccccc4)n3)c(-c3ccc(F)cc3)nn2n1",
    "GI50": "1.26 µM"
  },
  {
    "compound": "CNC(=S)NC(=O)c1c(Cl)n(C(=O)OC(C)(C)C)c2ccccc12",
    "GI50": "89.6 µM"
  },
  {
    "compound": "COc1cc(-c2ccc(-c3ccc(C(=N)N)nc3)s2)cc(OC)c1OC",
    "GI50": "1.73 µM"
  },
  {
    "compound": "COc1ccc(-c2oc(=O)ccc2-c2cc(OC)c(OC)c(OC)c2)cc1O",
    "GI50": "5.05 µM"
  },
  {
    "compound": "CNC(=O)c1ccc(N2C(=S)N(c3ccc(C#N)c(C(F)(F)F)c3)C(=O)C2(C)C)cc1F",
    "GI50": "22.4 µM"
  },
  {
    "compound": "COc1cc2c(cc1OC)-c1ccc3cc4c(cc3c1N(CCCn1ccnc1)C2)OCO4",
    "GI50": "10.1 µM"
  },
  {
    "compound": "COc1cc(N2CCC(N3CCN(C)CC3)CC2)ccc1Nc1ncnc(Nc2ccccc2S(=O)(=O)C(C)C)n1",
    "GI50": "2.38 µM"
  },
  {
    "compound": "CC(=O)[CH-]C(=O)c1ccccc1.CC(=O)[CH-]C(=O)c1ccccc1.CC(C)CCCC(C)[C@H]1CCC2[C@@H]3CC=C4C[C@@H]([O-])CC[C@]4(C)C3CC[C@@]21C.CC(C)CCCC(C)[C@H]1CCC2[C@@H]3CC=C4C[C@@H]([O-])CC[C@]4(C)C3CC[C@@]21C.[Ti+4] (some centres not stated)",
    "GI50": "> 100 µM"
  },
  {
    "compound": "O=c1cc(N2CCN(CCCCCOc3cc(O)c4c(=O)cc(-c5ccccc5)oc4c3)CC2)c2ccccc2o1",
    "GI50": "> 100 µM"
  },
  {
    "compound": "N#Cc1ccc2c(c1)C(=O)c1c-2n(CCCCl)c(=O)c2cc([N+](=O)[O-])ccc12",
    "GI50": "1.91 µM"
  },
  {
    "compound": "COc1ccc(-c2cc(-c3cccn3C)c(C#N)c(=O)[nH]2)cc1OC",
    "GI50": "> 100 µM"
  },
  {
    "compound": "N#CC1=C(N)Oc2c(ccc3ccccc23)C1c1ccccc1 (configuration not stated)",
    "GI50": "0.0681 µM"
  }
]

* * *

Below, each entry is listed with its recorded TGI.
# System: MALME-3M melanoma
# experimental-details: NCI tumour cell line growth inhibition, 48 h
experimental-readout: TGI

[
  {
    "compound": "Cc1cc(O)cc2c1[C@]1(C)CCC3C(C)(C)CCC[C@]3(C)[C@H]1C2 (stereo not given in full)",
    "experimental-readout": "TGI",
    "recorded-result": "39.4 µM"
  },
  {
    "compound": "COc1ccc(/C(COc2ccc3c(=O)c(-c4ccccc4)coc3c2)=N\\O)cc1",
    "experimental-readout": "TGI",
    "recorded-result": "5.91 µM"
  },
  {
    "compound": "CC(=O)[C@@H]1C/C(=C\\OCc2ccccc2)O[C@H]1C",
    "experimental-readout": "TGI",
    "recorded-result": "> 100 µM"
  },
  {
    "compound": "CCOC(=O)NC1C2CC(=O)OC(O2)C1OC(C)=O (stereo not given)",
    "experimental-readout": "TGI",
    "recorded-result": "> 100 µM"
  },
  {
    "compound": "CCn1c(SCC(=O)N/N=C/c2ccccc2)nc2ccccc2c1=O",
    "experimental-readout": "TGI",
    "recorded-result": "> 94.6 µM"
  },
  {
    "compound": "CCOC(=O)CCC(NC(=O)c1ccc(Oc2nc3ccccc3nc2-c2ccccc2)cc1)C(=O)OCC (stereo not given)",
    "experimental-readout": "TGI",
    "recorded-result": "33 µM"
  },
  {
    "compound": "NC(N)=NS(=O)(=O)c1ccc(NNc2c3ccccc3nc3c(C(=O)Nc4ccc(S(=O)(=O)N=C(N)N)cc4)cccc23)cc1",
    "experimental-readout": "TGI",
    "recorded-result": "79.1 µM"
  },
  {
    "compound": "CC(=O)OC1CCn2nnc(CO)c21 (stereo not given)",
    "experimental-readout": "TGI",
    "recorded-result": "> 100 µM"
  },
  {
    "compound": "C1CCCCC2(CCCCCCCCC3(CCC1)OCCO3)OCCO2",
    "experimental-readout": "TGI",
    "recorded-result": "> 100 µM"
  },
  {
    "compound": "O=S(=O)(NCCCNc1nccc(-c2c(-c3ccc(F)c(O)c3)nc3sccn23)n1)c1ccc(F)cc1",
    "experimental-readout": "TGI",
    "recorded-result": "1.01 µM"
  },
  {
    "compound": "CNC(=S)NC(=O)c1c(Cl)n(C(=O)OC(C)(C)C)c2ccccc12",
    "experimental-readout": "TGI",
    "recorded-result": "> 100 µM"
  },
  {
    "compound": "CCCCCCCCCCCCCCCCCCN(C)C(COC)COP(=O)([O-])OCC[N+](C)(C)C (stereo not given)",
    "experimental-readout": "TGI",
    "recorded-result": "29.5 µM"
  },
  {
    "compound": "Cn1c(=O)n2n(c1=O)C(S(=O)(=O)c1ccccc1)C2 (stereo not given)",
    "experimental-readout": "TGI",
    "recorded-result": "> 100 µM"
  },
  {
    "compound": "O=C1c2ccccc2C(=O)N1CC1S(=O)(=O)OCCOS1(=O)=O",
    "experimental-readout": "TGI",
    "recorded-result": "> 100 µM"
  },
  {
    "compound": "CC(C)(C)CC(C)(C)c1cc2c(O)c(c1)Cc1cc(C(C)(C)CC(C)(C)C)cc(c1O)Cc1cc(C(C)(C)CC(C)(C)C)cc(c1O)Cc1cc(C(C)(C)CC(C)(C)C)cc(c1O)Cc1cc(C(C)(C)CC(C)(C)C)cc(c1O)C2",
    "experimental-readout": "TGI",
    "recorded-result": "> 100 µM"
  },
  {
    "compound": "CC1=C(C(=O)Nc2cc(=O)n(C)c(=O)n2C)C(c2cccc([N+](=O)[O-])c2)C(C(=O)Nc2cc(=O)n(C)c(=O)n2C)=C(C)N1",
    "experimental-readout": "TGI",
    "recorded-result": "> 100 µM"
  },
  {
    "compound": "CC(=Nc1ccccc1)C1=C(O)C(Cc2ccc(O)cc2)NC1=O (stereo not given)",
    "experimental-readout": "TGI",
    "recorded-result": "> 100 µM"
  },
  {
    "compound": "O=C(Nc1ccc(Cl)cc1Cl)C1C(=O)C(=O)N(c2ccc(Cl)cc2Cl)C1=O (stereo not given)",
    "experimental-readout": "TGI",
    "recorded-result": "> 100 µM"
  },
  {
    "compound": "COc1ccc(C2SCC(=O)N2NC(=O)c2ccncc2)cc1F (stereo not given)",
    "experimental-readout": "TGI",
    "recorded-result": "> 100 µM"
  },
  {
    "compound": "CCN(CC)CCC(=O)c1ccc(C)cc1",
    "experimental-readout": "TGI",
    "recorded-result": "42.4 µM"
  }
]
